The reported measurements were obtained from ChEMBL document CHEMBL1268915.

Species on record: Homo sapiens
Assay: Inhibition of human elastase at 100 uM
The source made the active and inactive calls. No cut-off for these calls is given here.
PROPERTY MEASURED: inhibition

Take a look at these entries with their results.
>  <COMPOUND>
Cc1ccc(CNC(=O)[C@H](CCc2ccccc2)NC(=O)[C@@H](NCc2ccc(OCc3ccccc3)cc2)[C@@H](C)O)cc1

>  <PROPERTY MEASURED>
inhibition

>  <VAL>
Active

$$$$
>  <COMPOUND>
Cc1ccsc1CNC(=O)[C@H](CCc1ccccc1)NC(=O)[C@@H](NC(=O)c1ccc(OCc2ccccc2)cc1)[C@@H](C)O

>  <PROPERTY MEASURED>
inhibition

>  <VAL>
Active

$$$$
>  <COMPOUND>
Cc1ccc(CNC(=O)[C@H](CCc2ccccc2)NC(=O)[C@@H](NC(=O)C(=O)c2c[nH]c3ccccc23)[C@@H](C)O)cc1

>  <PROPERTY MEASURED>
inhibition

>  <VAL>
Active

$$$$
>  <COMPOUND>
C=CCNC(=O)[C@H](CCc1ccccc1)NC(=O)[C@@H](NC(=O)c1ccc(OCc2ccccc2)cc1)[C@@H](C)O

>  <PROPERTY MEASURED>
inhibition

>  <VAL>
Active

$$$$
>  <COMPOUND>
COc1ccc(CNC(=O)[C@@H](NC(=O)[C@H](Cc2cc(OC)c(OC)c(OC)c2)NC(=O)Cc2cccc(Oc3ccccc3)c2)C(C)C)c(O)c1

>  <PROPERTY MEASURED>
inhibition

>  <VAL>
Active

$$$$
>  <COMPOUND>
C[C@@H](O)[C@H](NC(=O)c1ccc(OCc2ccccc2)cc1)C(=O)N[C@@H](CCc1ccccc1)C(=O)N(C)Cc1ccccc1

>  <PROPERTY MEASURED>
inhibition

>  <VAL>
Active

$$$$

Which inhibition reading was recorded for the compound CC(NC(=O)[C@H](CCc1ccccc1)NC(=O)[C@@H](NC(=O)c1ccc(OCc2ccccc2)cc1)[C@@H](C)O)c1ccccc1 (stereo partly specified) ?
Active

Which inhibition reading was recorded for the compound Cc1ccc(CNC(=O)[C@H](CCc2ccccc2)NC(=O)[C@@H](NC(=O)Cc2cccc(Oc3ccccc3)c2)[C@@H](C)O)cc1 ?
Active

Which inhibition reading was recorded for the compound Cc1ccc(CNC(=O)[C@H](CCc2ccccc2)NC(=O)[C@@H](NC(=O)c2ccc(OCc3ccccc3)cc2)[C@@H](C)O)cc1 ?
Active

Which inhibition reading was recorded for the compound Cc1ccc(CNC(=O)[C@H](CCc2ccccc2)NC(=O)[C@H](CCc2ccccc2)NC(=O)Cc2cccc(Oc3ccccc3)c2)cc1 ?
Active

Which inhibition reading was recorded for the compound Cc1ccc(CNC(=O)[C@H](CCc2ccccc2)NC(=O)[C@@H](NC(=O)C(C)(C)Oc2ccccc2Cl)[C@@H](C)O)cc1 ?
Active

---

Target: Tissue-type plasminogen activator (Homo sapiens)
Experiment: Inhibition of tissue plasminogen activator at 100 uM
Calls of active or inactive are those of the source. The rule behind the calls is not given here.
PROPERTY MEASURED: inhibition

>  <COMPOUND>
CC(NC(=O)[C@H](CCc1ccccc1)NC(=O)[C@@H](NC(=O)c1ccc(OCc2ccccc2)cc1)[C@@H](C)O)c1ccccc1 (some centres undefined)

>  <PROPERTY MEASURED>
inhibition

>  <VAL>
Active

$$$$
>  <COMPOUND>
CC(C)C[C@H](NC(=O)[C@H](Cc1ccccc1)NC(=O)c1cnccn1)B(O)O

>  <PROPERTY MEASURED>
inhibition

>  <VAL>
Active

$$$$
>  <COMPOUND>
CCNC(=O)[C@H](CCc1ccccc1)NC(=O)[C@@H](NC(=O)c1ccc(OCc2ccccc2)cc1)[C@@H](C)O

>  <PROPERTY MEASURED>
inhibition

>  <VAL>
Active

$$$$
>  <COMPOUND>
Cc1ccc(CNC(=O)[C@H](CCc2ccccc2)NC(=O)[C@@H](NC(=O)C(=O)c2c[nH]c3ccccc23)[C@@H](C)O)cc1

>  <PROPERTY MEASURED>
inhibition

>  <VAL>
Active

$$$$
